test: TOR pathway RTG branch CIT2 reporter changes – S. cerevisiae, GFP fusion, multiplex flow cytometry, primary screen (AID 1870);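 also: barcoded CIT2-GFP strain pooled with four other GFP strains with rapamycin as positive control; median GFP fluorescence per well over plate mean of DMSO wells so 100% = DMSO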; settings: S. cerevisiae CIT2-GFP expression, 3 h, at 10 µM, stronger effect = higher value
Recorded measurements of percent response of DMSO control, one per entry
// note: answer is a bare numeric in %

[
  {
    "Compound": "Cn1nnnc1SCC1=C(C(=O)O)N2C(=O)[C@@H](NC(=O)[C@H](O)c3ccccc3)[C@H]2SC1",
    "Measured endpoint": "percent response of DMSO control",
    "Result unit": "%",
    "Reported": 106
  },
  {
    "Compound": "COc1ccc2c(c1OC)C(C1c3c(cc4c(c3OC)OCO4)CCN1C)OC2=O (stereo unspecified)",
    "Measured endpoint": "percent response of DMSO control",
    "Result unit": "%",
    "Reported": 121
  },
  {
    "Compound": "CC1=NN(c2ccccc2)C(=O)C1",
    "Measured endpoint": "percent response of DMSO control",
    "Result unit": "%",
    "Reported": 109
  },
  {
    "Compound": "CC12CN3CC(C)(CN(C1)C3c1ccc(Br)cc1O)C2 (stereo unspecified)",
    "Measured endpoint": "percent response of DMSO control",
    "Result unit": "%",
    "Reported": 108
  }
]

# compound Cc1nnc(SCC2=C(C(=O)O)N3C(=O)[C@@H](NC(=O)Cn4cnnn4)[C@H]3SC2)s1 ; its percent response of DMSO control = 100

# compound CC(OC(=O)c1cc(=O)[nH]c2ccccc12)C(=O)c1ccccc1 (stereo unspecified) ; its percent response of DMSO control = 106

# compound CCc1cc(C(N)=S)ccn1 ; its percent response of DMSO control = 104

# compound Nc1ccc2cn[nH]c2c1 ; its percent response of DMSO control = 98.6

# compound CC1(C)C(=O)OC(/C=C\c2ccccc2)C(C)(C)C1=O (stereo unspecified) ; its percent response of DMSO control = 95.7

# compound CCOc1cc2c(cc1OCC)C(c1ccccc1)N(c1ccc(C(=O)O)cc1)C(=O)C2 (stereo unspecified) ; its percent response of DMSO control = 95.5

###

target: Integrin beta-1 (Homo sapiens) + Integrin alpha-4 (Homo sapiens) (UniProt P13612+P05556); experiment: alpha4beta1 integrin LIBS antibody binding reduction – U937 cells, HUTS-21 mAb, flow cytometry, validation set, VLA-4 allosteric modulator project, pilot screen (AID 2674); details: HUTS-21 LIBS mAb binding, at 6.7 µM, stronger effect = higher value, binding induced by LDV ligand;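 also: antibody binding induced by the VLA-4 ligand LDV present at three times its Kd; 0% = LDV ligand with antibody and no compound and 100% = antibody without LDV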
Sequence (P05556 whole entry, looked up): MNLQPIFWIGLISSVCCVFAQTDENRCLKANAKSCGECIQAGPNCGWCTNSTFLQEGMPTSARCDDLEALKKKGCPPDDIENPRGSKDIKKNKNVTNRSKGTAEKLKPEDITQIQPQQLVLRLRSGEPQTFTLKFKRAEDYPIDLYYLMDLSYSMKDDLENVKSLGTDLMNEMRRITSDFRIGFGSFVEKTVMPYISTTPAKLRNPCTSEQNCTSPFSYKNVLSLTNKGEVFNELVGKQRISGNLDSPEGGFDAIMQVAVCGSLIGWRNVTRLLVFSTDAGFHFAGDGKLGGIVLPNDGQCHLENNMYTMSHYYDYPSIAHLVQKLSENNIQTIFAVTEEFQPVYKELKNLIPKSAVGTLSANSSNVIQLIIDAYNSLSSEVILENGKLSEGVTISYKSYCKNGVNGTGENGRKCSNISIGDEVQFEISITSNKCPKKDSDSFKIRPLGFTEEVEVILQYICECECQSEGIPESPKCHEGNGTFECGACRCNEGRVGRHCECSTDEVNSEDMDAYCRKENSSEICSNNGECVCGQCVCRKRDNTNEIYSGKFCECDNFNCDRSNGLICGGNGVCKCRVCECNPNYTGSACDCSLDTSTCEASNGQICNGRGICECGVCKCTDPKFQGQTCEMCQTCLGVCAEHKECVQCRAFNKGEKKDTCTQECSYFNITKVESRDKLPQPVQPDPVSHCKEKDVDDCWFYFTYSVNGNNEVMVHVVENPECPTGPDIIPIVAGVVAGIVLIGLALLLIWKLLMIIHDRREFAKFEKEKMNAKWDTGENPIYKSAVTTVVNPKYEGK
Sequence (P13612 whole entry, looked up): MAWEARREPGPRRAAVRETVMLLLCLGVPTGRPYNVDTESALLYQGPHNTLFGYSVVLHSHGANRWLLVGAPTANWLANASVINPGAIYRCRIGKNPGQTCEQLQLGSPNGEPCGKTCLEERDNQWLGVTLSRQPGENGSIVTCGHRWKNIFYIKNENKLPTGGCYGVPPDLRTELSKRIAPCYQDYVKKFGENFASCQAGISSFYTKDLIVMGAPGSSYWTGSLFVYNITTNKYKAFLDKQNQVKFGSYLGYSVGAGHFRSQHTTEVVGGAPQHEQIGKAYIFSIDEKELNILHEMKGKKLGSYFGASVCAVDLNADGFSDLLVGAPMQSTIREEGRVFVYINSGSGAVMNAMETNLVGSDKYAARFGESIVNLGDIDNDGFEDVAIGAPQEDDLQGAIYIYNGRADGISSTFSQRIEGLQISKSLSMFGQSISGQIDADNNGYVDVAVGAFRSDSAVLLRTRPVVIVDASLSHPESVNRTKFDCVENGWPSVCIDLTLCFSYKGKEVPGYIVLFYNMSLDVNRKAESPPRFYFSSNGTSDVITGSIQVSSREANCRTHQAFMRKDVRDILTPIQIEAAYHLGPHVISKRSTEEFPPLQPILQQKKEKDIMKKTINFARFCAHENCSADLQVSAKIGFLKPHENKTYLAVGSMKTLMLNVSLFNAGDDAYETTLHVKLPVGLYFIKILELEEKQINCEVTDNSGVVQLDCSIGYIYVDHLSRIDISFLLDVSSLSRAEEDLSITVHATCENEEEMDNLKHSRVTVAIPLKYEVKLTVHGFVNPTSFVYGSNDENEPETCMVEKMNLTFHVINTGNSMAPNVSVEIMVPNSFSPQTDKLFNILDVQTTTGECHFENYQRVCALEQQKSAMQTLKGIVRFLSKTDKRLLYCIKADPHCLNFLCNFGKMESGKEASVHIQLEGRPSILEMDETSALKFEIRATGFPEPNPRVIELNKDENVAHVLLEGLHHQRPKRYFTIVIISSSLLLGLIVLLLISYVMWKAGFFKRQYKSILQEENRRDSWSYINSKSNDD
Measured endpoint: inhibition (%)
// note: answer is a bare numeric in %

These solved cases illustrate the format of a correct answer.
[
  {
    "Compound": "CSCCC(NC(C)=O)C(=O)Oc1ccc2c3c(c(=O)oc2c1)CCCC3 (configuration not stated)",
    "Measured endpoint": "inhibition",
    "Reported": 3.7
  },
  {
    "Compound": "NCCCC(N)(C(=O)O)C(F)F (configuration not stated)",
    "Measured endpoint": "inhibition",
    "Reported": 5.61
  },
  {
    "Compound": "O=C(O)C1[C@H]2C(=O)N(C3CCCC3)C[C@]23C=C[C@H]1O3 (some centres not stated)",
    "Measured endpoint": "inhibition",
    "Reported": 11.7
  }
]

# compound Cc1cccc(-n2c(Cc3ccccc3)n[nH]c2=S)c1 ; its inhibition = -18.2

# compound CC(=O)O[C@H]1C[C@@]2(C)[C@@H](C[C@@H](O)[C@H]3[C@@]4(C)CC[C@@H](O)[C@@H](C)C4CC[C@@]32C)/C1=C(\CCC=C(C)C)C(=O)O (some centres not stated) ; its inhibition = 11.7

# compound O=C(Nc1ccc(C(=O)NC2CCCCC2)cc1)c1cccnc1 ; its inhibition = -0.43

# compound COc1ccccc1OCC(=O)O ; its inhibition = 3.67

# compound CC(=O)N(CCC(Cc1ccccc1)c1ccco1)Cc1ccco1 (configuration not stated) ; its inhibition = -0.33

# compound C[N+](C)(C)CCCCCCCCCC[N+](C)(C)C ; its inhibition = 3.55

###

assay: cytosolic pH regulators acting via V-ATPase – S. cerevisiae, pHLuorin, HTS validation (AID 504600); settings: V-ATPase proton transport, at 10 µM, stronger effect = higher value;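 also: plate controls were DMSO for no effect and reference compound for full effect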
Recorded measurements of response, one per entry
// note: answer is a bare numeric in %

These solved cases illustrate the format of a correct answer.
[
  {
    "Compound": "COc1ccc(/C=C\\c2nc(=O)c3ccccc3o2)cc1",
    "response (%)": 8.52
  },
  {
    "Compound": "COC(=O)C1=C(C)N(C)C(=S)NC1c1ccc(Cl)cc1 (stereo unspecified)",
    "response (%)": 0.83
  },
  {
    "Compound": "OCC1CCN(Cc2cn(Cc3ccccc3)nc2-c2cc3ccccc3o2)CC1",
    "response (%)": -6.29
  },
  {
    "Compound": "CC(CN1c2ccccc2Sc2ccccc21)N(C)C (stereo unspecified)",
    "response (%)": -2.78
  },
  {
    "Compound": "O=C(O)CCC(=O)c1ccc(-c2ccccc2)cc1",
    "response (%)": -4.64
  },
  {
    "Compound": "CN1C(C(=O)Nc2ccccn2)=C(O)c2ccccc2S1(=O)=O",
    "response (%)": -0.85
  },
  {
    "Compound": "CN1/C(=C\\C=Nc2ccccc2)C(C)(C)c2ccccc21",
    "response (%)": 0.09
  },
  {
    "Compound": "CCc1cc(/C(Cc2ccccn2)=N\\O)c(O)cc1O",
    "response (%)": 2.25
  }
]

# compound Cc1ccc(C(=O)Nc2ccccc2C(=O)NC(C(=O)O)C(C)C)cc1 (stereo unspecified) ; its response = 0.12

# compound CC(C)(CO)CNC(=O)CC1C(=O)NCCN1CC(c1ccccc1)c1ccccc1 (stereo unspecified) ; its response = 0.18

# compound O=C(O)[C@H](Cc1ccccc1)NC(=O)N1CCC(Cc2ccccc2)CC1 ; its response = 0.86

###

test: reduced mouse 2C T cell binding to pMHC/ICAM-1 vesicles – MLPCN validation set, flow cytometry, LFA-1/ICAM-1 modulator project, pilot screen (AID 2523); conditions: 2C mouse CD8+ T cells, at 7 µM, stronger effect = lower value;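 also: mean PE anti-B7-1 fluorescence of CD8+ cells relative to row control; 100% = QL9-loaded vesicles with DMSO vehicle in the same plate row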
Measured endpoint: vesicle binding response (%)
// note: answer is a bare numeric in %

These solved cases illustrate the format of a correct answer.
[
  {
    "Compound": "COCCN(CCOC)Cc1c(C)[nH]c2c(C)c(C)ccc2c1=O",
    "vesicle binding response, %": 132
  },
  {
    "Compound": "C/C(CCc1oc2ccc(Cl)cc2c1-c1ccc(C)o1)=N\\O",
    "vesicle binding response, %": 157
  },
  {
    "Compound": "O=C(CN1CCN(Cc2ccccc2)CC1)N1CCCc2c1c(=O)oc1ccc(O)cc21",
    "vesicle binding response, %": 202
  },
  {
    "Compound": "CC1(C)CC(=O)C2=C(C1)c1c(ccc3ccccc13)NC2c1ccco1 (stereo not drawn)",
    "vesicle binding response, %": 182
  },
  {
    "Compound": "Cc1csc(N)n1",
    "vesicle binding response, %": 201
  }
]

# compound COc1cc(-c2cccs2)cc(=O)c2c(C)oc(C)c12 ; its vesicle binding response = 235

# compound CCC(=O)O[C@]1(C(=O)CCl)[C@@H](C)C[C@H]2[C@@H]3CCC4=CC(=O)C=C[C@]4(C)[C@@]3(F)[C@@H](O)C[C@@]21C ; its vesicle binding response = 228

# compound CC(=O)N1c2ccccc2C(C)=CC1(C)C ; its vesicle binding response = 199

# compound COc1ccc(/C=C(/C#N)c2cccnc2)cc1OC ; its vesicle binding response = 6.8

# compound N#C/C(=C/c1ccccc1)C(=O)NCc1ccccc1 ; its vesicle binding response = 197

# compound CC(C)[C@H]1CN(C)CCN1Cc1cn(C)nc1-c1cccc(Cl)c1 ; its vesicle binding response = 48.9

# compound Cc1ccccc1C(=O)NNc1ncnc2c1cnn2C ; its vesicle binding response = 146

# compound C[C@H]([C@@H](N)C(=O)N[C@@H](C(=O)O)[C@@H]1O[C@H](n2ccc(=O)[nH]c2=O)[C@@H](O)[C@H]1O)[C@@H](O)c1ccc(O)cn1 ; its vesicle binding response = 184

###

target: Guanine nucleotide-binding protein G(o) subunit alpha (Homo sapiens) (UniProt P09471); test: RGS4 and Galphao interaction regulators – biochemical, single concentration, multiplexed bead flow cytometry, confirmation (AID 1840); settings: at 10 µM, actives lie on both sides
Sequence (P09471 whole entry, looked up): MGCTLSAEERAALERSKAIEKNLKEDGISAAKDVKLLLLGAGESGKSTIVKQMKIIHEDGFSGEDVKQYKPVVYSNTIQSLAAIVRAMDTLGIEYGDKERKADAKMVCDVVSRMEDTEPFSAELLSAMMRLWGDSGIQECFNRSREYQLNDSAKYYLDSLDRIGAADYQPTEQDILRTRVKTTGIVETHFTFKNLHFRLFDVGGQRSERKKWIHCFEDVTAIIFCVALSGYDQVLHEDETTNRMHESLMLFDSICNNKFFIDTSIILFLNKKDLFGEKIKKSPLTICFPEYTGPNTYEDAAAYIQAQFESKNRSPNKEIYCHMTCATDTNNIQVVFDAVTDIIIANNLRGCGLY
Some of the results follow.
Recorded measurements of binding response (% of control), one per entry
// note: answer is a bare numeric in %

[
  {
    "Molecule": "CC(=O)Nc1nc(N(C)C)nc(N(C)C)n1",
    "Result unit": "%",
    "binding response (% of control)": 104
  }
]

# molecule CCOc1ccc(NC(=O)CSc2nc3ccccc3c(=O)n2Cc2cccs2)cc1 ; its binding response (% of control) = 102

# molecule COc1ccc(-n2c(SCC(=O)OC(C)C)nnc2-c2ccccn2)cc1 ; its binding response (% of control) = 97.2

# molecule O=C(Nc1ccccc1)OCc1cc(-c2ccc(Cl)cc2)on1 ; its binding response (% of control) = 93.7

# molecule CCN(CC)S(=O)(=O)c1cccc(-c2n[nH]c(=S)n2/N=C/c2ccc(C(=O)OC)cc2)c1 ; its binding response (% of control) = 91

# molecule CCOC(=O)CSc1nc2c(c(=O)n(Cc3ccccc3Cl)c(=O)n2C)n1C ; its binding response (% of control) = 94.7
